Target: T1, IL-2Rβ/γ on M07e cells (human, UniProt P14784 27-551; P31785 23-369)
T1 sequence (looked up) 1: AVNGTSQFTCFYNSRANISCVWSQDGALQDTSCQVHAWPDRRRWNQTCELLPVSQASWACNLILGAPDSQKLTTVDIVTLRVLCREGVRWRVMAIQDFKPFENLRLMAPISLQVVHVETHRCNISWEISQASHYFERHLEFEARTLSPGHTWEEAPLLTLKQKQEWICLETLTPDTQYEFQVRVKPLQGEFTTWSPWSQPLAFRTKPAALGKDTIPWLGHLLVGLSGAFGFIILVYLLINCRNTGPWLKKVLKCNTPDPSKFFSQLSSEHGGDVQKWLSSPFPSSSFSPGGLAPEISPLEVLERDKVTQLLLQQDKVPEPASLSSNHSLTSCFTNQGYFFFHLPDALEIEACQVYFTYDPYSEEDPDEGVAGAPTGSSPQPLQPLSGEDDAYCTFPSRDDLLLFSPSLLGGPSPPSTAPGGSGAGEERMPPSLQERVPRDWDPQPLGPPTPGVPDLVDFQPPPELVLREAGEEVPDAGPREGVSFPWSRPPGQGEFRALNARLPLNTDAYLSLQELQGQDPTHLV
T1 sequence (looked up) 2: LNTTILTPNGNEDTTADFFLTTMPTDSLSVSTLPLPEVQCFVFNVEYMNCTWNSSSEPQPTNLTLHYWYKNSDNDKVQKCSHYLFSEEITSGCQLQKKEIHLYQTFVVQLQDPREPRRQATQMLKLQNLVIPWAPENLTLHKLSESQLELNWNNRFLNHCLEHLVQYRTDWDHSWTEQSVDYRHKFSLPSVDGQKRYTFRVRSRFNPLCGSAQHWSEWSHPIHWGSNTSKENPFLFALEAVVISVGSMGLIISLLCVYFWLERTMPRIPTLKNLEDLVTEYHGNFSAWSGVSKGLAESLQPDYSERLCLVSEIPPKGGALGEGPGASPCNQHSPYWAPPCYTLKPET
Test: cell-based or functional assay
I'd be grateful if you could share measured M07e cell proliferation activity (%) at 0.46 nM for these entries.
Could you kindly put the unit after your number?

binder="A-PC (Fc fusion, also called positive control molecule A-PC; PD-1-IL-2v; not shown: IgG1 hinge (C220S) + Fc Knob chain (L234A, L235A, S354C, T366W, EU); D356/L358 or E356/M358 ver; IgG1 hinge (C220S) + Fc Hole chain (L234A, L235A, Y349C, T366S, L368A, Y407V; may have H435R, Y436F; EU)) chain (part 1 of 2): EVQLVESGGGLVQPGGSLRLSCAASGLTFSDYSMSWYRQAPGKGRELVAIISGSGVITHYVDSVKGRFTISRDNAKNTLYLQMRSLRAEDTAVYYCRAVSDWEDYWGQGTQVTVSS chain (part 2 of 2): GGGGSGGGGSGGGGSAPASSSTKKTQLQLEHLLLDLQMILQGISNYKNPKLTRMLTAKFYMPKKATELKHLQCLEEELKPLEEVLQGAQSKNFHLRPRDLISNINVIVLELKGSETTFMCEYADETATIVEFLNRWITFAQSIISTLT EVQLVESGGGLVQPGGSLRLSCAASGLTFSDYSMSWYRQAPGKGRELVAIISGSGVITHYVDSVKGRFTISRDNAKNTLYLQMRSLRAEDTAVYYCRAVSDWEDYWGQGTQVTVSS" observed=0.1%

# per-item lookup of M07e cell proliferation activity (%) at 0.46 nM; items listed below
1. A-D20A (Fc fusion, also called PD-1-IL-2v (D20A); not shown: IgG1 hinge (C220S) + Fc Knob chain (L234A, L235A, S354C, T366W, EU); D356/L358 or E356/M358 ver; IgG1 hinge (C220S) + Fc Hole chain (L234A, L235A, Y349C, T366S, L368A, Y407V; may have H435R, Y436F; EU)) chain (part 1 of 2): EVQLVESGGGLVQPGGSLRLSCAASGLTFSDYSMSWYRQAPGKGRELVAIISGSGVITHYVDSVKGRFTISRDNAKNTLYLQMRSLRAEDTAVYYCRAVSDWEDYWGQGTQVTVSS chain (part 2 of 2): GGGGSGGGGSGGGGSAPASSSTKKTQLQLEHLLLALQMILQGISNYKNPKLTRMLTAKFYMPKKATELKHLQCLEEELKPLEEVLQGAQSKNFHLRPRDLISNINVIVLELKGSETTFMCEYADETATIVEFLNRWITFAQSIISTLT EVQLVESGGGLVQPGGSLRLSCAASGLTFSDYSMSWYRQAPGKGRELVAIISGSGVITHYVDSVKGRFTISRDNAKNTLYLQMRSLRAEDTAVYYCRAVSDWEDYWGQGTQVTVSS
2. PEGylated IL-2 mutant (PEG-IL-2v) (ligand, PEGylated (site not stated)) APASSSTKKTQLQLEHLLLDLQMILQGISNYKNPKLTRMLTAKFYMPKKATELKHLQCLEEELKPLEEVLQGAQSKNFHLRPRDLISNINVIVLELKGSETTFMCEYADETATIVEFLNRWITFAQSIISTLT

Out:
1. -3%
2. 0.7%
